test system: HCT116-C9; assay: Cell growth inhibition assay (MTT method), cross resistance study; format: cell-based, human; details: Example 5, HCT116-C9, 72 hours, read-out: antiproliferative activity IC50
observation type: IC50 (nM)

[[record]]
molecule = "NS(=O)(=O)c1ccc(S(=O)(=O)Nc2cccc3c(Cl)c[nH]c23)cc1 [E7070]"
recorded_result = 127

